test system: SW-620; assay: NCI tumour cell line growth inhibition, 48 h
The source made the active and inactive calls. No stated cut-off is given here; in the data, active = GI50 up to about 1.1 µM and inactive = higher.
Outcome codes: Yes for active, No for inactive

{"molecule": "CC1=CC(=O)N(n2c(C)n[nH]c2=O)C1=O", "discrete-label": "No"}
{"molecule": "CCOC1Oc2ccccc2-c2nc(N)ncc21 (configuration not stated)", "discrete-label": "No"}
{"molecule": "CC(=O)N1CC(C)(C)c2c(C)c(O)c(C)c(C)c21", "discrete-label": "No"}
{"molecule": "COc1cc(/C=C2\\CCC(C)C3=C2NC(=S)NC3c2cc(OC)c(OC)c(OC)c2)cc(OC)c1OC (configuration not stated)", "discrete-label": "No"}
{"molecule": "Cc1cnc2nc(-c3ccc(F)cc3)cc(O)c2c1", "discrete-label": "No"}
{"molecule": "Nc1ccc(C(=O)NN2C(=O)C(Cl)C2c2ccc(O)cc2)cc1 (configuration not stated)", "discrete-label": "No"}
{"molecule": "Oc1ccc(CCc2cc(O)cc(O)c2)cc1 [DIHYDRORESVERATROL]", "discrete-label": "No"}
{"molecule": "Cc1c(C2=NN=C(/N=N/c3c(O)cccc3O)/C2=C/c2ccccc2)c(=O)n(-c2ccccc2)n1C", "discrete-label": "No"}
{"molecule": "C/C=C/c1cc(=O)c([C@@H]2OC(=O)c3cc(OC)cc(OC)c32)co1 [VERMISTATIN]", "discrete-label": "No"}
{"molecule": "O=C(Oc1ccc(S(=O)(=O)F)cc1F)c1ccccc1Cl", "discrete-label": "No"}
{"molecule": "Cc1ccc(NC(=O)/C=C/c2ccccc2)c(C)c1", "discrete-label": "No"}
{"molecule": "[O-][Cl+3]([O-])([O-])O.c1ccc(/N=c2\\nc(N3CCOCC3)ss2)cc1", "discrete-label": "No"}
{"molecule": "O=C1/C(=C/c2ccc([N+](=O)[O-])cc2)CCCc2ccccc21", "discrete-label": "No"}
{"molecule": "CC(=O)OCC1OC(O[C@H]2C=C[C@@H](C(=O)OCc3ccccc3)n3c(=O)n(-c4ccccc4)c(=O)n32)C(OC(C)=O)C(OC(C)=O)C1OC(C)=O (some centres not stated)", "discrete-label": "No"}
{"molecule": "C=CCNC(=O)C(C)C1CCC2(C)C=CC(=O)C(C)=C2C1O (configuration not stated)", "discrete-label": "No"}
{"molecule": "COC(=O)c1c(O)ccc2c1c1c(n2Cc2cc(OC)cc(OC)c2)C(=O)c2ccccc2C1=O", "discrete-label": "No"}
{"molecule": "O=C1NC(c2c(Cl)cccc2Cl)Nc2ccccc21 (configuration not stated)", "discrete-label": "No"}
{"molecule": "COc1cccc(-c2nc(O)c3ccccc3n2)c1", "discrete-label": "No"}
{"molecule": "CN(C)CCNC(=O)c1ccc(Cl)c2c(Nc3ccc(S(=O)(=O)N=C(N)N)cc3)c3ccccc3nc12", "discrete-label": "No"}
{"molecule": "COc1cc([C@@H]2c3cc4c(cc3[C@H](OC3OC5COC(C(C)C)OC5C(O)C3O)C3COC(=O)[C@@H]32)OCO4)cc(OC)c1OC (some centres not stated)", "discrete-label": "No"}
{"molecule": "CC(C)(C)N(Cc1ccc2c(c1)OCO2)C(=O)/C=C\\[S+]([O-])c1ccccc1 (configuration not stated)", "discrete-label": "No"}
{"molecule": "COc1ccc(S(=O)(=O)c2ccccc2[N+](=O)[O-])cc1", "discrete-label": "No"}
{"molecule": "CC1C2CC(CC(=O)N2)C1(C)C (configuration not stated)", "discrete-label": "No"}
{"molecule": "O=S1(=O)N2CN3CN(C2)CN1C3", "discrete-label": "No"}
{"molecule": "BrCc1ccc(CBr)c2c1-c1c(CBr)ccc3ccc(CBr)c-2c13", "discrete-label": "No"}
{"molecule": "COc1ccc(/C=C2\\C[C@H]3[C@@H]4CC=C5C[C@@H](OC(C)=O)CC[C@]5(C)[C@H]4CC[C@]3(C)C2=O)cc1OC", "discrete-label": "No"}
{"molecule": "O=C1C=CC[C@H]2O[C@@H](COC(=O)Cc3ccccc3)C[C@H]2O1", "discrete-label": "No"}
{"molecule": "CC12CCC3C(CCC4(O)C=CCCC34C=O)C1(O)CC(O)C2c1ccc(=O)oc1 (configuration not stated)", "discrete-label": "Yes"}
{"molecule": "CC(C)=CCc1c(O)ccc2c1OC1c3ccc(O)c(CC=C(C)C)c3OCC21 (configuration not stated)", "discrete-label": "No"}
{"molecule": "CCN(CC)CCCNc1nccc2c(C)c3[nH]c4ccncc4c(=O)c3cc12", "discrete-label": "No"}
{"molecule": "O=C(N/C(=C\\c1ccccc1)c1nc2ccccc2c(=O)o1)c1ccccc1", "discrete-label": "No"}
{"molecule": "CCOC(=O)C1S/C(=N\\c2ccc(C)c(C)c2)N=C1C (configuration not stated)", "discrete-label": "No"}
{"molecule": "CCCCC(=O)Nc1ccc2cc(C(=O)OC)c(ON3C(=O)c4ccccc4C3=O)nc2n1", "discrete-label": "No"}
{"molecule": "COc1ccc(/C=N/Nc2nc3ccccc3c(=O)n2-c2ccccc2)cc1", "discrete-label": "No"}
{"molecule": "COc1ccc2[nH]c3c([N+](=O)[O-])ccc(NCCCN(C)C)c3/c(=N/CCCN(C)C)c2c1", "discrete-label": "No"}
{"molecule": "CCOc1ccc(NC2=CC(=O)C(=O)c3ccccc32)cc1", "discrete-label": "No"}
{"molecule": "CC(=O)OCC1OC(N2C(=S)N[C@H]([C@@H](O)[C@H](O)[C@H](O)CO)[C@H]2O)C(OC(C)=O)C(OC(C)=O)C1OC(C)=O (some centres not stated)", "discrete-label": "No"}
